target: Muscarinic acetylcholine receptor M1 (Homo sapiens, UniProt P11229)
Sequence (P11229 whole entry): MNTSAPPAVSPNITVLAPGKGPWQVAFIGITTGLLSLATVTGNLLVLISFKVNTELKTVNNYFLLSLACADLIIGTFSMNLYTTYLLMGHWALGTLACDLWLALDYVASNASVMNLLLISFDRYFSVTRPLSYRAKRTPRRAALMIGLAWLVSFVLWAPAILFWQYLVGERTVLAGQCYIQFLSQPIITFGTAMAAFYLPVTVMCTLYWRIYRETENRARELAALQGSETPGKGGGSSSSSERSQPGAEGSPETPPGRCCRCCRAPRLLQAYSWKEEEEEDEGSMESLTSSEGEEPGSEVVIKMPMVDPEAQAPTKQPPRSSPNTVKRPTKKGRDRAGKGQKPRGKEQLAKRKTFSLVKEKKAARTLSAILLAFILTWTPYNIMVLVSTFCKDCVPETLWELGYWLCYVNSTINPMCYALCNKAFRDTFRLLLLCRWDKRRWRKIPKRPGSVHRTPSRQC
assay.comment: Binding affinity to muscarinic M1 receptor (unknown origin) expressed in CHO cells
Type: cell-based
observable: pKi
Quick note: pKi means taking -log10 of the concentration in moles per liter.

{"columns": ["smiles", "target", "meas.value"],
 "data": [
  ["CCCC(C)(C)C(=O)N(CC)CCCC1CCN(CC(=O)N2c3ccccc3NC(=O)c3ccccc32)CC1", "Muscarinic acetylcholine receptor M1 (Homo sapiens, UniProt P11229)", 6.50]
]}

Here is another molecule to look at.
Inquiry: Name the recorded pKi of the molecule listed here: CCN(CC)CCCCC1CCN(CC(=O)N2c3ccccc3C(=O)Nc3cccnc32)CC1
Reply text: 7.30

* * *

target: Muscarinic acetylcholine receptors; M1 & M2 (Homo sapiens) (UniProt P11229+P08172)
assay.comment: Selectivity ratio of Ki for human muscarinic M1 receptor expressed in CHO-K9 cells to Ki for human muscarinic M2 receptor expressed in CHO-K9 cells
Assay type: cell-based
Label Condition met when Ratio Ki is strictly below 20; otherwise label Condition not met.

These solved cases illustrate the format of a correct answer.
{"columns": ["smiles", "class"],
 "data": [
  ["CC(=O)N[C@@H](CCCCN)C(=O)N[C@@H](C)C(=O)N[C@@H](CCCNC(=N)N)C(=O)NCCN1CCN(CCCCC2CCN(CC(=O)N3c4ccccc4NC(=O)c4ccccc43)CC2)CC1", "Condition not met"],
  ["CC(=O)N[C@@H](CCC(N)=O)C(=O)N[C@@H](CC(C)C)C(=O)NCCN1CCN(CCCCC2CCN(CC(=O)N3c4ccccc4NC(=O)c4ccccc43)CC2)CC1", "Condition met"],
  ["CC(=O)N[C@@H](CCCCN)C(=O)N[C@@H](CCCNC(=N)N)C(=O)NCC(=O)NCCCCC1CCN(CC(=O)N2c3ccccc3NC(=O)c3ccccc32)CC1", "Condition met"]
]}

Inquiry: hey, is Ratio Ki for CC(=O)N[C@@H](CCCCN)C(=O)N[C@@H](Cc1ccc(O)cc1)C(=O)NCCCCC1CCN(CC(=O)N2c3ccccc3NC(=O)c3ccccc32)CC1 lower than 20 or not?
Reply text: Condition met

* * *

target: Muscarinic acetylcholine receptor M5 (Homo sapiens)
Sequence (P08912 whole entry): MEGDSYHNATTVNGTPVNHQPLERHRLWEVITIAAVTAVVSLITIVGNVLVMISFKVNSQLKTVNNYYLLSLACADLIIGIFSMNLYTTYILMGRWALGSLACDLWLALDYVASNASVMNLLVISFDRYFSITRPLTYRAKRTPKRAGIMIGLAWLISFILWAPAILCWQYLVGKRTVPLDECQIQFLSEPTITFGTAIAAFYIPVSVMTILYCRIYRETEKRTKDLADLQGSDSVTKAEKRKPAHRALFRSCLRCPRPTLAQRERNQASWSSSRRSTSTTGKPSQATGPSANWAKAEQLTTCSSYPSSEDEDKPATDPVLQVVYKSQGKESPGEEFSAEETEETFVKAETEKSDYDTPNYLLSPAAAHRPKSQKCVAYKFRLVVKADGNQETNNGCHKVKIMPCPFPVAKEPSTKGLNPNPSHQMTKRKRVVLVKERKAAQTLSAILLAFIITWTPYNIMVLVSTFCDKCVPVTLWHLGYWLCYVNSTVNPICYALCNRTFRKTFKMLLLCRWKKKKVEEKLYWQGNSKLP
assay.comment: Displacement of [3H]-NMS from human muscarinic M5 receptor expressed in CHO-K9 cells after 3 hrs by microbeta2 scintillation counting method
Format: cell-based
observable: log10 Ki (log10 of the value in nM)
Form field - Quantity: Ki; Unit: nM; Scale: log10

See these solved cases before continuing.
{"columns": ["smiles", "log10 Ki"],
 "data": [
  ["CC(=O)N[C@@H](CCCCN)C(=O)N[C@@H](C)C(=O)N[C@@H](Cc1ccc(O)cc1)C(=O)NCCCCC1CCN(CC(=O)N2c3ccccc3NC(=O)c3ccccc32)CC1", 2.35],
  ["CC(=O)N[C@@H](Cc1c[nH]c2ccccc12)C(=O)N[C@@H](Cc1ccc(O)cc1)C(=O)NCCCCC1CCN(CC(=O)N2c3ccccc3NC(=O)c3ccccc32)CC1", 1.77],
  ["CC(=O)N[C@@H](CCCCN)C(=O)N[C@@H](C)C(=O)N[C@@H](CCCNC(=N)N)C(=O)NCCN1CCN(CCCCC2CCN(CC(=O)N3c4ccccc4NC(=O)c4ccccc43)CC2)CC1", 2.47],
  ["CC(=O)N[C@@H](CCCCN)C(=O)N[C@@H](Cc1ccc(O)cc1)C(=O)NCCN1CCN(CCCCC2CCN(CC(=O)N3c4ccccc4NC(=O)c4ccccc43)CC2)CC1", 1.85],
  ["CC(=O)N[C@@H](Cc1ccc(O)cc1)C(=O)N[C@@H](C)C(=O)N[C@@H](CCCCN)C(=O)NCCN1CCN(CCCCC2CCN(CC(=O)N3c4ccccc4NC(=O)c4ccccc43)CC2)CC1", 1.47],
  ["CC(=O)N[C@@H](CCCCN)C(=O)N[C@@H](C)C(=O)N[C@@H](CCCNC(=N)N)C(=O)NCCCCC1CCN(CC(=O)N2c3ccccc3NC(=O)c3ccccc32)CC1", 2.63],
  ["CC(=O)N[C@@H](CCC(N)=O)C(=O)N[C@@H](C)C(=O)N[C@@H](CC(C)C)C(=O)NCCN1CCN(CCCCC2CCN(CC(=O)N3c4ccccc4NC(=O)c4ccccc43)CC2)CC1", 2.38],
  ["CC(=O)N[C@@H](CCCNC(=N)N)C(=O)N[C@@H](CCCNC(=N)N)C(=O)NCCCCC1CCN(CC(=O)N2c3ccccc3NC(=O)c3ccccc32)CC1", 2.21],
  ["CC(=O)N[C@@H](CCCCN)C(=O)N[C@@H](CCCNC(=N)N)C(=O)NCCCCC1CCN(CC(=O)N2c3ccccc3NC(=O)c3ccccc32)CC1", 2.63],
  ["CC(=O)N[C@@H](CCCCN)C(=O)N[C@@H](Cc1ccc(O)cc1)C(=O)NCCCCC1CCN(CC(=O)N2c3ccccc3NC(=O)c3ccccc32)CC1", 1.87]
]}

Inquiry: Name the recorded log10 Ki of the compound listed here: CC(=O)N[C@@H](CCCCN)C(=O)N[C@@H](C)C(=O)N[C@@H](Cc1ccc(O)cc1)C(=O)NCCN1CCN(CCCCC2CCN(CC(=O)N3c4ccccc4NC(=O)c4ccccc43)CC2)CC1
Reply text: 1.98

Inquiry: Name the recorded log10 Ki of the compound listed here: CC(=O)N[C@@H](CCCNC(=N)N)C(=O)NCCCCC1CCN(CC(=O)N2c3ccccc3NC(=O)c3ccccc32)CC1
Reply text: 2.99

* * *

target: Muscarinic acetylcholine receptor M2 (Homo sapiens)
Sequence (P08172 whole entry): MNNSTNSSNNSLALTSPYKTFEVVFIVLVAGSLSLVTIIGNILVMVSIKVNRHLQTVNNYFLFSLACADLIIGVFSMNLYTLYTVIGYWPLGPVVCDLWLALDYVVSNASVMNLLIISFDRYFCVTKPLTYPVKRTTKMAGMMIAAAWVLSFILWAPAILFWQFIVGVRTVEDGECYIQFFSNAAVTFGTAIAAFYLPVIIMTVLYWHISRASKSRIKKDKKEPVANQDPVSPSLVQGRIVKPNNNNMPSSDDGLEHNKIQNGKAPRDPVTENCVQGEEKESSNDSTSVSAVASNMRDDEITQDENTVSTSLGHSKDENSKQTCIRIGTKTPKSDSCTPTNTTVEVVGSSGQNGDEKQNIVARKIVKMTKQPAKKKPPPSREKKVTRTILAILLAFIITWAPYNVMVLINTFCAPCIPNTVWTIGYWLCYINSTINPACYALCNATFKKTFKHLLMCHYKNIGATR
assay.comment: Displacement of [3H]-NMS from human muscarinic M2 receptor expressed in CHO-K1 cells by scintillation counting method
Assay type: cell-based
observable: Ki (nM)
Numbers only here, please. The scale is nM.

Inquiry: Name the recorded Ki of the molecule listed here: CCCC(C)(C)C(=O)N(CC)CCCC1CCN(CC(=O)N2c3ccc(Cl)cc3C(=O)Nc3cccnc32)CC1
Reply text: 30.2

* * *

target: Muscarinic acetylcholine receptor M1 (Homo sapiens)
assay.comment: Displacement of [3H]-NMS from human muscarinic M1 receptor expressed in CHO-K9 cells after 3 hrs by microbeta2 scintillation counting method
Type: cell-based
Ki values for the molecules below.
Numbers only here, please. The scale is nM.

See these solved cases before continuing.
{"columns": ["smiles", "target", "observable", "meas.value"],
 "data": [
  ["CC(=O)N[C@@H](C)C(=O)N[C@@H](C)C(=O)NCCN1CCN(CCCCC2CCN(CC(=O)N3c4ccccc4NC(=O)c4ccccc43)CC2)CC1", "Muscarinic acetylcholine receptor M1 (Homo sapiens)", "Ki", 3.16],
  ["CC(=O)N[C@@H](CCCCN)C(=O)N[C@@H](CCCNC(=N)N)C(=O)NCCCCC1CCN(CC(=O)N2c3ccccc3NC(=O)c3ccccc32)CC1", "Muscarinic acetylcholine receptor M1 (Homo sapiens)", "Ki", 41.7]
]}

Inquiry: Name the recorded Ki of the molecule listed here: CC(=O)N[C@@H](CCC(N)=O)C(=O)N[C@@H](C)C(=O)N[C@@H](CC(C)C)C(=O)NCCCCC1CCN(CC(=O)N2c3ccccc3NC(=O)c3ccccc32)CC1
Reply text: 537

Inquiry: Name the recorded Ki of the molecule listed here: CC(=O)N[C@@H](CCC(N)=O)C(=O)N[C@@H](CC(C)C)C(=O)NCCCCC1CCN(CC(=O)N2c3ccccc3NC(=O)c3ccccc32)CC1
Reply text: 1050

Inquiry: Name the recorded Ki of the molecule listed here: CC(=O)N[C@@H](CCCCN)C(=O)N[C@@H](C)C(=O)N[C@@H](Cc1ccc(O)cc1)C(=O)NCCN1CCN(CCCCC2CCN(CC(=O)N3c4ccccc4NC(=O)c4ccccc43)CC2)CC1
Reply text: 1.26

Inquiry: Name the recorded Ki of the molecule listed here: CC(=O)N[C@@H](C)C(=O)N[C@@H](C)C(=O)NCCCCC1CCN(CC(=O)N2c3ccccc3NC(=O)c3ccccc32)CC1
Reply text: 302

Inquiry: Name the recorded Ki of the molecule listed here: CC(=O)N[C@@H](Cc1ccc(O)cc1)C(=O)N[C@@H](C)C(=O)N[C@@H](CCCCN)C(=O)NCCCCC1CCN(CC(=O)N2c3ccccc3NC(=O)c3ccccc32)CC1
Reply text: 178

Inquiry: Name the recorded Ki of the molecule listed here: CN1CC=C(c2nsnc2OCCCN2CCN(CCCCC3CCN(CC(=O)N4c5ccccc5NC(=O)c5ccccc54)CC3)CC2)CC1
Reply text: 1.45

Inquiry: Name the recorded Ki of the molecule listed here: CC(=O)N[C@@H](Cc1c[nH]c2ccccc12)C(=O)N[C@@H](Cc1ccc(O)cc1)C(=O)NCCCCC1CCN(CC(=O)N2c3ccccc3NC(=O)c3ccccc32)CC1
Reply text: 155

Inquiry: Name the recorded Ki of the molecule listed here: CC(=O)N[C@@H](CCCCN)C(=O)N[C@@H](C)C(=O)N[C@@H](CCCNC(=N)N)C(=O)NCCCCC1CCN(CC(=O)N2c3ccccc3NC(=O)c3ccccc32)CC1
Reply text: 115

Inquiry: Name the recorded Ki of the molecule listed here: CC(=O)N[C@@H](CCCCN)C(=O)N[C@@H](Cc1ccc(O)cc1)C(=O)NCCN1CCN(CCCCC2CCN(CC(=O)N3c4ccccc4NC(=O)c4ccccc43)CC2)CC1
Reply text: 1.41

Inquiry: Name the recorded Ki of the molecule listed here: CC(=O)N[C@@H](CCC(N)=O)C(=O)N[C@@H](C)C(=O)N[C@@H](CC(C)C)C(=O)NCCN1CCN(CCCCC2CCN(CC(=O)N3c4ccccc4NC(=O)c4ccccc43)CC2)CC1
Reply text: 2.95
